Origin of the recorded values: patent US6399568B1

Biological target: histone deacetylase
Assay: Histone deacetylase enzyme inhibiting activity, synthetic peptide substrate
Format: biochemical, mouse
Details: enzyme from B16/BL6 cells; [3H]acetylated histone H4 peptide; 37° C. 3 hours
Non-standard residues stand in square brackets, D forms with d. Residues, ends and D or L forms follow the SMILES beside them. *: point of attachment. Asu = N[C@@H](CCCCCC(=O)O)C(=O)O; dTic = O=C(O)[C@H]1Cc2ccccc2CN1; NHOH = ON*
measured_property: pIC50
Answers are plain numbers, as −log10 of the molar value.

O=C(CCCCC[C@@H]1NC(=O)[C@H]2CCCN2C(=O)[C@H](Cc2ccccc2)NC(=O)[C@H](Cc2ccccc2)NC1=O)NO [HDA-5, cyclo(-Asu(NHOH)-Phe-Phe-D-Pro-)] (cyclo([Asu](NHOH)FF[dP]))	8.22
O=C(CCCCC[C@@H]1NC(=O)[C@@H](Cc2ccccc2)NC(=O)[C@H](Cc2ccccc2)NC(=O)[C@H]2CCCN2C1=O)NO [HDA-37, cyclo(-L-Asu(NHOH)-D-Pro-L-Phe-D-Phe-)] (cyclo([Asu](NHOH)[dP]F[dF]))	8.04
CC[C@H](C)[C@@H]1NC(=O)[C@@H](Cc2ccc(OC)cc2)NC(=O)[C@H](CCCCCC(=O)NO)NC(=O)[C@H]2CCCN2C1=O [HDA-31] (cyclo([Asu](NHOH)[dY](Me)I[dP]))	8.48
O=C(CCCCC[C@@H]1NC(=O)[C@@H]2CCCN2C(=O)[C@@H](Cc2ccccc2)NC(=O)[C@H](Cc2ccccc2)NC1=O)NO [HDA-39, cyclo(-L-Asu(NHOH)-L-Phe-D-Phe-L-Pro-)] (cyclo([Asu](NHOH)F[dF]P))	6.65
CC[C@H](C)[C@@H]1NC(=O)[C@@H](Cc2ccc(OC)cc2)NC(=O)[C@H](CCCCCC(=O)NO)NC(=O)[C@H]2Cc3ccccc3CN2C1=O [HDA-52] (cyclo([Asu](NHOH)[dY](Me)I[dTic]))	8.36
CC(/C=C/C(=O)NO)=C\[C@@H](C)C(=O)c1ccc(N(C)C)cc1 [Trichostatin A, trichostatin A, reference compound]	8.59

Now consider a different molecule.
Query :: Sample CCC(C)[C@@H]1NC(=O)[C@@H](Cc2ccc(OC)cc2)NC(=O)[C@H](CCCCC(=O)NO)NC(=O)[C@H]2CCCN2C1=O (stereo partly shown) [HDA-42] — what was its pIC50?
Result :: 7.27

----------
Assign IC50 to each entry below.
System: liver cancer MH134 cell line
Assay: Cell proliferation inhibition (72 hours)
Assay type: cell-based, mouse
Details: read-out: 50% proliferation inhibiting concentration MH134 (nM) mean
Non-standard residues stand in square brackets, D forms with d. Residues, ends and D or L forms follow the SMILES beside them. ξ: configuration not given here. *: point of attachment. Asu = N[C@@H](CCCCCC(=O)O)C(=O)O; ξPip = O=C(O)C1CCCCN1; Aib = CC(C)(N)C(=O)O; NHOH = ON*

See these solved cases before continuing.
O=C(CCCCCC[C@@H]1NC(=O)[C@H]2CCCN2C(=O)[C@H](Cc2ccccc2)NC(=O)[C@H](Cc2ccccc2)NC1=O)NO [HDA-17, cyclo(-Aaz(NHOH)-Phe-Phe-D-Pro-)]	19900 nM
CC(C)C[C@@H]1NC(=O)[C@@H](Cc2ccccc2)NC(=O)[C@H](CCCCCC(=O)NO)NC(=O)C2CCCCN2C1=O (stereo partly drawn) [HDA-12, cyclo(-Asu(NHOH)-D-Phe-Leu-Pip-)] (cyclo([Asu](NHOH)[dF]L[ξPip]))	112 nM
CC(C)C[C@@H]1NC(=O)[C@@H](Cc2ccccc2)NC(=O)[C@H](CCCCCC(=O)NO)NC(=O)[C@H]2CCCN2C1=O [HDA-29, cyclo(-L-Asu(NHOH)-D-Phe-L-Leu-D-Pro-)] (cyclo([Asu](NHOH)[dF]L[dP]))	176 nM
CC[C@H](C)[C@@H]1NC(=O)[C@@H](Cc2ccc(OC)cc2)NC(=O)[C@H](CCCCCC(=O)NO)NC(=O)[C@H]2CCCN2C1=O [HDA-31] (cyclo([Asu](NHOH)[dY](Me)I[dP]))	50.7 nM
O=C(CCCCC[C@@H]1NC(=O)[C@H]2CCCN2C(=O)[C@H](Cc2ccccc2)NC(=O)[C@@H](Cc2ccccc2)NC1=O)NO [HDA-27, cyclo(-L-Asu(NHOH)-D-Phe-L-Phe-D-Pro-)] (cyclo([Asu](NHOH)[dF]F[dP]))	236 nM
O=C(CCCCC[C@@H]1NC(=O)[C@H]2CCCN2C(=O)[C@H](Cc2ccccc2)NC(=O)[C@H](Cc2ccccc2)NC1=O)NO [HDA-5, cyclo(-Asu(NHOH)-Phe-Phe-D-Pro-)] (cyclo([Asu](NHOH)FF[dP]))	1660 nM
CC1(C)NC(=O)[C@H](CCCCCC(=O)NO)NC(=O)[C@H]2CCCN2C(=O)[C@H](Cc2ccccc2)NC1=O [HDA-15, cyclo(-Asu(NHOH)-Aib-Phe-D-Pro-)] (cyclo([Aib]F[dP][Asu](NHOH)))	946 nM
O=C(CCCC[C@@H]1NC(=O)[C@H]2CCCN2C(=O)[C@H](Cc2ccccc2)NC(=O)[C@H](Cc2ccccc2)NC1=O)NO [HDA-18, cyclo(-Api(NHOH)-Phe-Phe-D-Pro-)]	> 100000 nM

Query :: Sample CC(/C=C/C(=O)NO)=C\[C@@H](C)C(=O)c1ccc(N(C)C)cc1 [Trichostatin A, trichostatin A, reference compound] — what was its IC50?
Result :: 41.7 nM

----------
Tested on: B16/BL6 cells
Test: MHC class-I molecule expression promoting activity
Type: cell-based, mouse
Settings: mean of a plurality of assays; 72 hours
Non-standard residues stand in square brackets, D forms with d. Residues, ends and D or L forms follow the SMILES beside them. ξ: configuration not given here. *: point of attachment. Aoe = N[C@@H](CCCCCC(=O)[C@@H]1CO1)C(=O)O; Asu = N[C@@H](CCCCCC(=O)O)C(=O)O; Ile(3ξ) = CCC(C)[C@H](N)C(=O)O; dPip = O=C(O)[C@H]1CCCCN1; NHOH = ON*
Criterion: conc. for 2-fold expression (nM) mean strictly under 100 nM. Met: 1 (yes). Not met: 0 (no).

O=C1N[C@@H](Cc2ccccc2)C(=O)N2CCCC[C@@H]2C(=O)N[C@@H](CCCCCC(=O)[C@@H]2CO2)C(=O)N[C@H]1Cc1ccccc1 [trapoxin A, reference compound] (cyclo([Aoe]FF[dPip]))	1 (yes)

Query :: Threshold test, conc. for 2-fold expression (nM) mean < 100 nM: CCC(C)[C@@H]1NC(=O)[C@@H](Cc2ccc(OC)cc2)NC(=O)[C@H](CCCCC(=O)NO)NC(=O)[C@H]2CCCN2C1=O (stereo partly shown)
Result :: 0 (no)

Query :: Threshold test, conc. for 2-fold expression (nM) mean < 100 nM: O=C(CCCCCC[C@@H]1NC(=O)[C@H]2CCCN2C(=O)[C@H](Cc2ccccc2)NC(=O)[C@H](Cc2ccccc2)NC1=O)NO [HDA-17, cyclo(-Aaz(NHOH)-Phe-Phe-D-Pro-)]
Result :: 0 (no)

Query :: Threshold test, conc. for 2-fold expression (nM) mean < 100 nM: CC(C)C[C@@H]1NC(=O)[C@@H](Cc2ccccc2)NC(=O)[C@H](CCCCCC(=O)NO)NC(=O)[C@H]2CCCN2C1=O [HDA-29, cyclo(-L-Asu(NHOH)-D-Phe-L-Leu-D-Pro-)] (cyclo([Asu](NHOH)[dF]L[dP]))
Result :: 1 (yes)

Query :: Threshold test, conc. for 2-fold expression (nM) mean < 100 nM: CC[C@H](C)[C@@H]1NC(=O)[C@@H](Cc2ccc(OC)cc2)NC(=O)[C@H](CCCCCC(=O)NO)NC(=O)[C@H]2CCCN2C1=O [HDA-31] (cyclo([Asu](NHOH)[dY](Me)I[dP]))
Result :: 1 (yes)

Query :: Threshold test, conc. for 2-fold expression (nM) mean < 100 nM: CC(=O)NCCCC[C@@H]1NC(=O)[C@H]2CCCN2C(=O)[C@H](Cc2ccccc2)NC(=O)[C@H](Cc2ccccc2)NC1=O [HDA-6, cyclo(-L-Lys(Ac)-L-Phe-L-Phe-D-Pro-)] (cyclo(FF[dP]K(Ac)))
Result :: 0 (no)

Query :: Threshold test, conc. for 2-fold expression (nM) mean < 100 nM: O=C(O)c1ccccc1 [benzoic acid, reference compound]
Result :: 0 (no)

Query :: Threshold test, conc. for 2-fold expression (nM) mean < 100 nM: CCC(C)[C@@H]1NC(=O)[C@@H](Cc2ccccc2)NC(=O)[C@H](CCCCCC(=O)NO)NC(=O)[C@H]2CCCN2C1=O (stereo partly drawn) [HDA-46, cyclo(-L-Asu(NHOH)-D-Phe-L-Ile-D-Pro-)] (cyclo([Asu](NHOH)[dF][Ile(3ξ)][dP]))
Result :: 1 (yes)
